Test system: Mus musculus
methodNotes: Hypotensive activity in mouse assessed as decrease in immediate blood pressure at 2.5 mg/kg
Format: functional
Calls of active or inactive are those of the source. The calls are words filed in the database; no cut-off is given here.
measuredAttribute: Activity

Reference set, count: 5
CC1=N/C(=C\c2ccc(N(C)C)cc2)C(=O)N1c1ccc(O)cc1 : 25 mmHg
CC1=N/C(=C\c2ccccc2)C(=O)N1c1ccc(OCC(O)CNc2ccc(Cl)cc2)cc1 (stereo unspecified) : 50 mmHg
O=C1/C(=C/c2ccccc2)N=C(CCN2CCOCC2)N1c1ccc(O)cc1 : 35 mmHg
CC1=N/C(=C\c2ccoc2)C(=O)O1 : inactive
CC1=N/C(=C\c2ccc(N(C)C)cc2)C(=O)O1 : inactive

Provide Activity value for the following compound: `CC1=N/C(=C\c2ccccc2)C(=O)O1`
25 mmHg
